The measurements presented in this section are drawn from the supplement of paper PMC12764529.

Experimental protocol: folding stability dG unfold (combined trypsin and chymotrypsin); higher = more stable
Reported property: folding stability dG unfold (kcal/mol)

INSERT INTO measurements (seq_string, reported_property, censoring_sign, obs_value) VALUES
  ('SAGGSAGGSPKPKRRTIEFPLKVPPGMSPEDVADELKQQPGFEIDEIDEVDPDEGWVKISVELSAGGSAGGS [r12_712_TrROS]', 'folding stability dG unfold', '<', -1),
  ('SAGGMKVEVVETPTSLQIVTTTISTEKIPFNDVTLTTVTTEVKTIPLPEKPPVGLPYFDPEGKPLLLSAGGS [r8_46_JUSTAS]', 'folding stability dG unfold', '=', -0.424),
  ('SAGGMPEGMVVLRIRVRVEKVEVRRDPAVPGRVSRRVEVREVEIELVVDSREALEALRELGFEIEEVSAGGS [r8_482_TrROS_Hall]', 'folding stability dG unfold', '=', 4.22),
  ('GKAEVVRVEYDPETGALRVVLRREGADVVLEVDPETGVARVYFPADPRVLEFEFDTLEEAVDAAVALLEAGS [r1_177_TrMRF]', 'folding stability dG unfold', '=', 4.36),
  ('SAGGESYPFIGRNPETNALIEVTVTKLESGEYLVNATITNPNGETVEFPFTFPANSLTPESEIDVTITSAGG [r13_959_TrMRF]', 'folding stability dG unfold', '=', 1.44),
  ('SAGGSMGKTPDGGEVEFFEKPEENLIFAVVKHPDGSYYVAVFKKDEDKIELIDVKEVPEGEIEELASAGGSA [r2_336_TrMRF]', 'folding stability dG unfold', '=', 1.89),
  ('SAGGSAGGSAGKPITADEVAERVARRLRELFGPDYDINVKVVKVLPGDYVLVDVEITGDLSAGGSAGGSAGG [r11_153_TrMRF]', 'folding stability dG unfold', '=', 2.28);

* * *

Experimental protocol: folding stability dG unfold from chymotrypsin proteolysis; higher = more stable
Use True when the recorded folding stability dG unfold is no lower than 0.9 kcal/mol; use False when it is lower.

INSERT INTO results (seq_string, group) VALUES
  ('SAGGSAGGSAGGSMLPPDTTVTSTTFLPNGTVVNTTTTYTATPDDTYTVTTTTTTTPLTSSAGGSAGGSAGG [r7_249_JUSTAS]', 'False'),
  ('SMKEKALEKAKEKAEEIKKKYSNVKVKVEVKVEITPKGEIKITYKVVIEKPEKEKPYWVKYPNGPWKKIGSA [r9_82_JUSTAS]', 'True'),
  ('SAGGSAEEEEITIKLRITVYNEETGKPVKEIEIEIKVKKGQTLEQILEEAKKLLEEKGYKIVEIEISAGGSA [r15_195_TrROS_Hall]', 'True'),
  ('SAGGSAGGSAGGSPVAAKTLSKSTSLLPNGKVKTSTTTAFPTGETTTTTTTTPLSLTLTSAGGSAGGSAGGS [r10_1206_JUSTAS]', 'False'),
  ('SASLEPVATTAVPLPDGTTATLTLYRDPATGRYTVRVTVTHPDGAAETRVLEVDSEEEALSRVVLSPGASAG [r14_749_JUSTAS]', 'True'),
  ('SAGGSGKKVKIKINIVVVFPPGDPDLAKEIAKWFARTIARELQAQGFEDIKDIEIRVHVIPPNQPGFSAGGS [r16_289_TrROS]', 'True');

* * *

Experimental protocol: folding stability dG unfold from chymotrypsin proteolysis; higher = more stable
Reported property: folding stability dG unfold (kcal/mol)

INSERT INTO results (seq_string, obs_value) VALUES
  ('SGEIIGEQTFPVEDGGKVPVKIYKNPGNLYAEVFNDDDKPIQEQEIPPDDDLEDIENIKLPPGAWVRIYWSA [r9_215_TrROS]', 0.368),
  ('SAMKVTIEPLEDGSTVITLDDGTEITFSAPGSGAPILAKVTPLPNTGVVRVDIYHPEGGKLLAPLVVPLSAG [r14_975_TrMRF]', 0.579),
  ('SAGGGPVTVTVTFKPPSTGLTSTVTLPFPNVSSYEEAKERAEELAKEAGGPIETITFTDPATGKAHPLSAGG [r13_771_JUSTAS]', 0.213),
  ('SAGGSELENMSLEELLARAEELARELAEETGRTVTVTVEVRVRLPDGSTRTFRFTVTLTVLREEDLSAGGSA [r2_157_TrROS_Hall]', 4.74);

* * *

Experimental protocol: folding stability dG unfold (combined trypsin and chymotrypsin); higher = more stable
# folding stability dG unfold per record follows
Reported property: folding stability dG unfold (kcal/mol)

INSERT INTO measurements (seq_string, obs_value) VALUES
  ('MRITLEHPDIKRLTIEFRPMPDGYFRMDIKVERPDGKPVPIPFPMRYEDGKMTPEMMEQMIDEAVEEALADS [r1_124_TrROS]', 0.689),
  ('SAGGSAGGSAMIEISSYTLPNGELVVEVTIPDPNSDKTTTLRGKYSSLEEAREEAEKLYLQSAGGSAGGSAG [r3_174_JUSTAS]', 1.69),
  ('SAMIEIEAVFPPNVSLEEAVEAVKAEIESKGFEILEVKVEKLPNGEVLVRAVVKVKPEMPPEEIKKLAESAG [r14_110_TrMRF]', 2.07),
  ('SMKTVTLNFPSLSEEEVRALAEELEATGRYRVEKIDSSTPNIKVTVLEEPPEPRPPPPPALVRDADARAASA [r9_830_JUSTAS]', 1.4),
  ('SMVKVEIEEENGEKTIRIVNEETGVVVEIKFPEGEEVIEVPSVEELVEELKELGENIEITKIEPLSEEELSA [r9_1102_TrROS_Hall]', 0.661),
  ('MTVTVPPDGTVTITLTDPSGNTYTFTIPVTDPAELRARLEEAIRELFPEFEDIPVRVVAVDGPAVVVEVPLS [r1_389_JUSTAS]', 3.1),
  ('SMKVIIIERPDESGVPVVIVLPEEEALELYRKLFNVPMSVEEFAEKLKELNPNVKVEVVPLEEVSEEVLLSA [r9_1085_JUSTAS]', 2.35);

* * *

Experimental protocol: folding stability dG unfold (combined trypsin and chymotrypsin); higher = more stable
Reported property: folding stability dG unfold

INSERT INTO results (seq_string, obs_value) VALUES
  ('SAGMTSVLTLEEVSPEELRAKIDEALATLPEGTIFVLPSEELAEVVKELHPGVPVVVRDEATGRLTEVGSAG [r5_391_JUSTAS]', '1.5 kcal/mol'),
  ('SKPMPADELMEQHPNMIMIRTPNDKHIFINPEENEIFRFNPDEGRVYWIPGTLEEIEELVPDNGFEIWPFSA [r9_721_TrROS]', '0.286 kcal/mol'),
  ('SAGGSAGGSPGNIPINIKIEPYDPDGGEKRKRTIPFPFQDPEGARRHLNKIADEFPPGWRVEISAGGSAGGS [r20_211_TrROS]', '< -1 kcal/mol'),
  ('SAGGSAGGSAGGIGDDGKVRVALLDKNGKVLGPVYVTKVEEGKIEVEAEPDYTLVLNLESAGGSAGGSAGGS [r10_1257_TrMRF]', '0.329 kcal/mol'),
  ('SAMEISIDPIEDGPVRVTETYKFPGYTRITVKEIPKELLEKGVPLSELPNVPVLEEEIVEIPPPSPELKSAG [r14_856_JUSTAS]', '< -1 kcal/mol'),
  ('SAGGSAGGSAGGGELKELLKKNPGPLLLERPENTVSLILYDPKTGTYTVLTFSPTEPIPLSAGGSAGGSAGG [r7_84_JUSTAS]', '1.52 kcal/mol'),
  ('SAGKKYKVKKKITLTLEDGSKITIEIVENEDGTVEIKITDSNGKTRTITIPKEKLENMSLEELLKLLKSAGG [r19_47_TrROS_Hall]', '1.92 kcal/mol');

* * *

Some sequences, each annotated with its measured folding stability dG unfold.
Experimental protocol: folding stability dG unfold from chymotrypsin proteolysis; higher = more stable
Reported property: folding stability dG unfold (kcal/mol)

INSERT INTO assay_data (seq_string, reported_property, obs_value) VALUES
  ('SAGGVNPTDPAQATTTETTPSLVTLPNGEKVLVTTTTTTTPDGSTTTTTTTTNAATGATTSTTTTTASAGGS [r8_252_JUSTAS]', 'folding stability dG unfold', 2.39),
  ('SAGGSAGGSVPLELELTFKLENGSFIVVKAKIEFNPETPEFKVEVLSVEIFLEPEGKIVSDEDFSAGGSAGG [r6_864_TrMRF]', 'folding stability dG unfold', 3.08),
  ('SSMPLEEIVERVAEELGIPEEELERIESVDPGVVDPSPEGPTRVELRITLRDPHSDTTTEYRVEVEDPGGSA [r9_230_JUSTAS]', 'folding stability dG unfold', -0.503),
  ('SAGGSAPRIRVHFWNPNTGQWHHIPVERLKKAIDKNPPGEELEFPIPGYPVKVQVEPDDGTIWIRMSAGGSA [r15_350_TrROS]', 'folding stability dG unfold', 1.17),
  ('SAGGSAGGAERIKNLLEDYGFELKDVEMDEPGSTKIHITPDNPSLRKDIKDKLPPGNVDSITDTSAGGSAGG [r6_84_TrROS]', 'folding stability dG unfold', 1.33),
  ('SAMTVYYKITAEVEKTIGDTPETLTVPLTLTVPPDKLNEEEIKKIAEEKAKELGYTLKKIEISKTPSLPSAG [r14_278_JUSTAS]', 'folding stability dG unfold', 2.06),
  ('SAGGSAGGSAMPPLISTTPILGEEPGKRLVREIVTLPDGSLIELTYDEDGNVIESKKYIVGKSAGGSAGGSA [r18_467_JUSTAS]', 'folding stability dG unfold', 1.22),
  ('SAMKEGEEYEPVEKKKITIKNKKTNKTIEIEVVRNKKTNKYIVKITTKDGKKIEIVVSKEELEKLLKKLSAG [r14_240_TrROS_Hall]', 'folding stability dG unfold', 3.08),
  ('SGVQLEWKYDPEDNKREIKISIFFPADDPEKKKQFAKVIAKEIENMFQEQGWKPKKIDIEVMRMPPGQPLSA [r9_117_TrROS]', 'folding stability dG unfold', 1.2),
  ('SAGGSAGGSAFIRAEYKLPENKVLEIEIPVPESVLKKMSIEEVKELFKKLGLPDDVKIEFYDESAGGSAGGS [r12_742_TrMRF]', 'folding stability dG unfold', 1.78),
  ('SAGGSAGGSMYIVRIEVVNEETGKTEEIELEVSEEEAEELAKELAEKLPNIKEIKVEIRPLPESAGGSAGGS [r12_757_TrROS_Hall]', 'folding stability dG unfold', 1.96),
  ('SMKKPIDLIKKLGYTLTSVTKLPNGTTLITFEHPDSTVTVTVNPDGNIKITTTNPKNGTTTTTTIPVNKLSA [r9_2_JUSTAS]', 'folding stability dG unfold', 2.31),
  ('SGYLDAPVKDIKVEKKPIPTSGKVTYTFEAETEDGKPVRVEYNPVTGKIVFGLPPGFKIKPGKPAEVVVGSA [r9_509_TrMRF]', 'folding stability dG unfold', 0.885),
  ('SAGGSAGGSAPEPVVAKLVEVVTLPDGTPVLLFVVDHPDGPPELRLSTDALIEGDDLVDPSSAGGSAGGSAG [r3_261_TrMRF]', 'folding stability dG unfold', 0.404);
